target: Aspartate--tRNA(Asp/Asn) ligase (Mycobacterium tuberculosis (strain ATCC 25618 / H37Rv)); assay: Assay for Asp RNA synthetase-1 from Mycobacterium tuberculosis; assay type: functional; set-up: scale not given: in the data most compounds retested in dose-response had high values; conditions: 30 µM
EXPERIMENTAL READOUT: Percent Effect (%)
Give bare numbers, in %.

Solved cases below.
[
  {
    "MOLECULE": "CC(CNCc1ccc(Cl)c(Cl)c1)Oc1ccccn1 (stereo unspecified)",
    "TEST SYSTEM": "Aspartate--tRNA(Asp/Asn) ligase (Mycobacterium tuberculosis (strain ATCC 25618 / H37Rv))",
    "EXPERIMENTAL READOUT": "Percent Effect",
    "EXPERIMENTAL RESULT": -0.523
  },
  {
    "MOLECULE": "Cc1ccc(N2CCCC3(COCCN(c4nccs4)C3)C2)nn1 (stereo unspecified)",
    "TEST SYSTEM": "Aspartate--tRNA(Asp/Asn) ligase (Mycobacterium tuberculosis (strain ATCC 25618 / H37Rv))",
    "EXPERIMENTAL READOUT": "Percent Effect",
    "EXPERIMENTAL RESULT": -0.638
  },
  {
    "MOLECULE": "Cc1ccc(NC2CCN(C(=O)CCc3ccco3)CC2)nn1",
    "TEST SYSTEM": "Aspartate--tRNA(Asp/Asn) ligase (Mycobacterium tuberculosis (strain ATCC 25618 / H37Rv))",
    "EXPERIMENTAL READOUT": "Percent Effect",
    "EXPERIMENTAL RESULT": 0.0874
  }
]

Kindly give each listed record's Percent Effect.
1. CC1=Nc2c(c(=O)[nH]n2C(C)C)C(c2ccccc2)S1 (stereo unspecified)
2. O=C1NCCN1C1CCCN(Cc2nnc(-c3ccc(F)cc3)o2)C1 (stereo unspecified)
3. CCOc1cccc(C(C)NC(=O)N2CCC(C(N)=O)CC2)c1 (stereo unspecified)
4. COc1cccc(CN(C)S(=O)(=O)N2CCOCC2)c1
5. O=C1CCC(C(=O)NCc2nncn2-c2ccccc2)CN1 (stereo unspecified)
6. CC1CN(C(=O)CN(Cc2ccco2)C2CC2)CCO1 (stereo unspecified)

Output:
[1.45, -2.77, -2, -0.479, 3.33, 3.17]

Count: 7. Required value per item: Percent Effect.
1. CC(C)c1nc(N2CC(N3CCCCC3C)C2)c2cnn(C)c2n1 (stereo unspecified)
2. Cc1nc(CN2CCOC(CNc3cccnn3)C2)oc1C (stereo unspecified)
3. O=C(c1ccncc1F)N1CCN(CC2CC2)c2ncccc2C1
4. Cc1noc(CCCC(=O)NC(C)c2cccnc2)n1 (stereo unspecified)
5. CCOc1ccc(Cl)c(C(=O)NCc2ccc(C(=O)NC)cc2)n1
6. COCC(c1cccc(C(F)(F)F)c1)N(C)C(=O)c1cc(C)n[nH]1 (stereo unspecified)
7. CC(C)(C)N1CC(C(=O)N2CCN(CCc3ccccc3)CC2)CC1=O (stereo unspecified)

Output:
1: -2.71; 2: -4; 3: 2.79; 4: -0.922; 5: -2.66; 6: 1.86; 7: 0.448

The following molecules each have a reported value; give each one's Percent Effect.
1. Cc1ccc(C(=O)N2Cc3ccccc3C2)cc1N1CCNC1=O
2. CN(c1ccncn1)C1CC2(CCN(C(=O)CCc3cccs3)C2)C1 (stereo unspecified)
3. O=C(c1ccncc1)N1Cc2ccccc2OC2(CCOCC2)C1

Output:
-0.287
-1.32
-4.33

Please go through the list and note Percent Effect for each molecule.
1. Cc1ccc(-c2nc(CNCC3CN(C)CCO3)cs2)o1 (stereo unspecified)
2. Cc1nn(C)c(C)c1C1CCCN1C(=O)c1ccc(CN(C)C)cc1 (stereo unspecified)
3. O=C(O)C(c1ccc2c(c1)OCCO2)N1CCCCCC1 (stereo unspecified)
4. Cn1cc(CC2CCN(C(=O)NCCc3cccc(O)c3)C2)cn1 (stereo unspecified)
5. CC(C)N1CCC(Cc2cc(-c3cccc(C(=O)O)c3)ncn2)C1 (stereo unspecified)

Output:
[1.27, -2.88, -3.23, -5.03, -2.43]

Provide Percent Effect values for the following items, in order.
1. Cc1nc(C2CCN(C(=O)CO)CC2)cc(N2CCOCC2)n1
2. CCOCc1ncn2c1CN(C(=O)Nc1cccc(C)c1)CC2
3. Nc1nccc(-c2c[nH]nc2C2CCCCC2)n1
4. CC(=O)Nc1ccc(CNC2CC(=O)N(Cc3cccc(F)c3)C2)cc1 (stereo unspecified)
5. c1ccc(C2CCCN2Cc2nnnn2C2CC2)cc1 (stereo unspecified)
6. COc1ccccc1NC(=O)NCC(O)(c1ccccc1)C1CC1 (stereo unspecified)
7. Cn1cnc2c1CCN(Cc1ccc(C(=O)N3CCCC3)cc1)C2

Output:
1: -1.91; 2: 1.59; 3: 6.92; 4: -2.06; 5: -2.81; 6: -6.53; 7: 0.745

// for each molecule in input: emit Percent Effect
1. O=C(CCc1ccccc1)N1CCn2cc(Cn3cncn3)nc2C1
2. CCOc1cccc2c1OCC(C(=O)NS(=O)(=O)Cc1ccccc1)=C2
3. Cn1cnc2c1CCN(CCCOc1ccc(C#N)cc1)C2
4. CC(C)c1nnc2n1CCN(C(=O)c1ccc3cc[nH]c3c1)C2
5. COc1ccc(C(=O)C2CCCN(Cc3ccncc3)C2)c(OC)c1 (stereo unspecified)

Output:
1: -1.12; 2: -0.211; 3: -4.46; 4: -2.98; 5: -0.276
